Test system: 843126-344-R-J1-PDC complex spheroid viability
Test summary: Anticancer human tumor 843126-344-R-J1-PDC patient-derived melanoma cell line growth inhibition [POLQ]
Particulars: second compound 0.316 µM; first compound 3.16 µM; hits give low values
Entries whose viability, T/C is below 90% take label 1; entries at or above 90% take label 0.

C=CC(=O)N1CCN(c2nc(=O)n(-c3c(C)ccnc3C(C)C)c3nc(-c4c(O)cccc4F)c(F)cc23)C(C)C1 (stereo not given) + Nc1ccc(C#CCN(C(=O)Cc2ncc(C(F)(F)F)cc2C(F)(F)F)c2ccc(F)cc2)nn1: label 0
C#Cc1c(F)ccc2cc(O)cc(-c3ncc4c(N5CC6CCC(C5)N6)nc(OCC56CCCN5CC(F)C6)nc4c3F)c12 (stereo not given) + Nc1ccc(C#CCN(C(=O)Cc2ncc(C(F)(F)F)cc2C(F)(F)F)c2ccc(F)cc2)nn1: label 0
CC1COCCN1c1cc(C2(S(C)(=N)=O)CC2)nc(-c2ccnc3[nH]ccc23)n1 (stereo not given) + Nc1ccc(C#CCN(C(=O)Cc2ncc(C(F)(F)F)cc2C(F)(F)F)c2ccc(F)cc2)nn1: label 1

Now consider a different compound.
Below 90% on viability, T/C? Entry COc1cc(C2c3cc4c(cc3C(OC3OC5COC(C)OC5C(O)C3O)C3COC(=O)C23)OCO4)cc(OC)c1O (stereo not given) + Cc1cccc(N(C)C(=O)C2C(O)CCN2c2nc(C)cc(C(F)(F)F)c2C#N)c1
label 1

###

Test system: 843126-344-R-J1-PDC complex spheroid viability
Test summary: Anticancer human tumor 843126-344-R-J1-PDC cell line growth inhibition [POLQ];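 also: spheroids exposed to drugs for seven days before readout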
Particulars: second compound 0.1 µM; first compound 0.01 µM; hits give low values
Each record here notes measured viability, T/C.

// known answers, use as guide
Cn1ncnc1[C@H]1c2n[nH]c(=O)c3cc(F)cc(c23)N[C@@H]1c1ccc(F)cc1 + COC1C(OC(N)=O)C(O)C(Oc2ccc3c(O)c(NC(=O)c4ccc(O)c(CC=C(C)C)c4)c(=O)oc3c2C)OC1(C)C: 91.8%
CCc1c2c(nc3ccc(O)cc13)-c1cc3c(c(=O)n1C2)COC(=O)[C@]3(O)CC + COC1C(OC(N)=O)C(O)C(Oc2ccc3c(O)c(NC(=O)c4ccc(O)c(CC=C(C)C)c4)c(=O)oc3c2C)OC1(C)C: 52.1%
Cn1ncnc1[C@H]1c2n[nH]c(=O)c3cc(F)cc(c23)N[C@@H]1c1ccc(F)cc1 + Cc1cccc(N(C)C(=O)C2C(O)CCN2c2nc(C)cc(C(F)(F)F)c2C#N)c1: 73%
CC[C@@]1(O)C(=O)OCc2c1cc1n(c2=O)Cc2cc3c(CN(C)C)c(O)ccc3nc2-1 + COC1C(OC(N)=O)C(O)C(Oc2ccc3c(O)c(NC(=O)c4ccc(O)c(CC=C(C)C)c4)c(=O)oc3c2C)OC1(C)C: 91.4%
CCc1c2c(nc3ccc(O)cc13)-c1cc3c(c(=O)n1C2)COC(=O)[C@]3(O)CC + Cc1cccc(N(C)C(=O)C2C(O)CCN2c2nc(C)cc(C(F)(F)F)c2C#N)c1: 52.8%

Need viability, T/C of C=CCn1c(=O)c2cnc(Nc3ccc(N4CCN(C)CC4)cc3)nc2n1-c1cccc(C(C)(C)O)n1 + COC1C(OC(N)=O)C(O)C(Oc2ccc3c(O)c(NC(=O)c4ccc(O)c(CC=C(C)C)c4)c(=O)oc3c2C)OC1(C)C , thanks.
90.4%

Need viability, T/C of COc1cccc(OCCCN)c1-c1cc(Nc2cnc(C#N)cn2)n[nH]1 + COC1C(OC(N)=O)C(O)C(Oc2ccc3c(O)c(NC(=O)c4ccc(O)c(CC=C(C)C)c4)c(=O)oc3c2C)OC1(C)C , thanks.
81.8%

Need viability, T/C of Cn1ncnc1[C@H]1c2n[nH]c(=O)c3cc(F)cc(c23)N[C@@H]1c1ccc(F)cc1 + Nc1ccc(C#CCN(C(=O)Cc2ncc(C(F)(F)F)cc2C(F)(F)F)c2ccc(F)cc2)nn1 , thanks.
96.2%

Need viability, T/C of COc1cccc(OCCCN)c1-c1cc(Nc2cnc(C#N)cn2)n[nH]1 + Nc1ccc(C#CCN(C(=O)Cc2ncc(C(F)(F)F)cc2C(F)(F)F)c2ccc(F)cc2)nn1 , thanks.
71.2%

Need viability, T/C of COc1cccc(OCCCN)c1-c1cc(Nc2cnc(C#N)cn2)n[nH]1 + Cc1cccc(N(C)C(=O)C2C(O)CCN2c2nc(C)cc(C(F)(F)F)c2C#N)c1 , thanks.
71.6%
